Test system: Salmonella enterica typhimurium
MEASUREMENT_PROTOCOL: growth AUC normalised to DMSO control (fraction of control); higher = less growth inhibition, active = hit call of the paper
APPLIED_CONDITIONS: 20 µM
Structures can show the parent of a compound that is named as a salt.
EXPERIMENTAL_READOUT: growth AUC normalised to DMSO control
// no unit, no text: just the number

Q. Give reported growth AUC normalised to DMSO control value for NCC[C@H](O)C(=O)N[C@@H]1C[C@H](N)[C@@H](O[C@H]2O[C@H](CN)[C@@H](O)[C@H](O)[C@H]2O)[C@H](O)[C@H]1O[C@H]1O[C@H](CO)[C@@H](O)[C@H](N)[C@H]1O [Amikacin hydrate]
A. 0.922

Q. Give reported growth AUC normalised to DMSO control value for CC(=O)NS(=O)(=O)c1ccc(N)cc1 [Sulfacetamide sodic hydrate]
A. 1

Q. Give reported growth AUC normalised to DMSO control value for Cc1ccccc1C(OCCN(C)C)c1ccccc1 (configuration not stated) [Orphenadrine hydrochloride]
A. 1

Q. Give reported growth AUC normalised to DMSO control value for `CCC[C@H](N[C@@H](C)C(=O)N1[C@H](C(=O)O)C[C@@H]2CCCC[C@@H]21)C(=O)OCC`
A. 1.02

Q. Give reported growth AUC normalised to DMSO control value for Cc1cccc(Nc2ccncc2S(=O)(=O)NC(=O)NC(C)C)c1 [Torsemide]
A. 1

Q. Give reported growth AUC normalised to DMSO control value for CN1CCc2cccc3c2[C@H]1Cc1ccc(O)c(O)c1-3 [R(-) Apomorphine hydrochloride hemihydrate]
A. 0.999

Q. Give reported growth AUC normalised to DMSO control value for `CS(=O)(=O)c1ccc([C@@H](O)[C@@H](CO)NC(=O)C(Cl)Cl)cc1`
A. 0.408

The measurements presented in this section are drawn from the supplement of paper PMC12350171.
